All figures here come from patent US4605655A.

- experiment-summary: Catalepsy
- Assay type: in vivo, rats
- experimental-setup: rat, in vivo, po
Each entry below lists one item and its recorded ED50 value.

Sample answers from the record:
{"columns": ["molecule", "ED50"],
 "data": [
  ["CN1CCN(C2=Nc3cc(Cl)ccc3Nc3ccccc32)CC1 [Clozapine, reference compound]", "> 200 mg/kg"],
  ["Cl.OC(CCCN1CCN(c2ncc(F)cn2)CC1)c1ccc(F)cc1 (racemic)", "> 100 mg/kg"]
]}

Let us examine a further case.
IN: # return recorded ED50 for input CSc1ccc2c(c1)N(CCC1CCCCN1C)c1ccccc1S2 (stereo not drawn) [Thioridazine, reference compound]
OUT: 45.2 mg/kg

---

- target-of-assay: Dopamine receptor (striatal tissue)
- experiment-summary: Dopamine (DA) receptor binding vs. [^3 H]spiperone
- experimental-setup: vs. [^3 H]spiperone; read-out: DA Binding (vs. [^3 H]spip.) IC50
value-kind: pIC50
The scale used: pIC50 is minus the common logarithm of the concentration in molar units.

IN: # return recorded pIC50 for input Cl.OC(CCCN1CCN(c2ncc(F)cn2)CC1)c1ccc(F)cc1 (racemic) [MJ 14802, Hydrochloride]
OUT: 5.19

---

- target-of-assay: α1 receptor
- experiment-summary: α1 binding vs. [^3 H]WB4101
- experimental-setup: vs. [^3 H]WB4101
value-kind: IC50 (nM)
Value expressed in nM; do not type the unit.

IN: # return recorded IC50 for input Cl.OC(CCCN1CCN(c2ncc(F)cn2)CC1)c1ccc(F)cc1 (racemic) [MJ 14802, Hydrochloride]
OUT: 520

---

- target-of-assay: Muscarinic Cholinergic receptor
- experiment-summary: Muscarinic cholinergic receptor binding
- Description: As further indication of the psychotropic activity and specificity of the instant compounds, state of the art in vitro central nervous system receptor binding methodology can be employed. […] Inhibition of radiolabeled ligand binding to such specific high affinity sites is considered a measure of the compound's ability to affect corresponding central nervous system function or cause side effects in vivo. This principal is employed in the following assays which are given by way of example. […]
value-kind: IC50

IN: # return recorded IC50 for input Cl.OC(CCCN1CCN(c2ncc(F)cn2)CC1)c1ccc(F)cc1 (racemic) [MJ 14802, Hydrochloride]
OUT: > 1 µM
